Catalogue of inhibition readings, one per entry.
test system: Isocitrate dehydrogenase [NADP] cytoplasmic (Homo sapiens), O75874 [R132H]; assay: Inhibition of IDH1 R132H mutant (unknown origin) assessed as reduction in NADPH consumption using alpha-KG as substrate at 38 uM incubated for 5 mins by diaphorase/resazurin-coupled system relative to control
Sequence (O75874 whole entry R132H): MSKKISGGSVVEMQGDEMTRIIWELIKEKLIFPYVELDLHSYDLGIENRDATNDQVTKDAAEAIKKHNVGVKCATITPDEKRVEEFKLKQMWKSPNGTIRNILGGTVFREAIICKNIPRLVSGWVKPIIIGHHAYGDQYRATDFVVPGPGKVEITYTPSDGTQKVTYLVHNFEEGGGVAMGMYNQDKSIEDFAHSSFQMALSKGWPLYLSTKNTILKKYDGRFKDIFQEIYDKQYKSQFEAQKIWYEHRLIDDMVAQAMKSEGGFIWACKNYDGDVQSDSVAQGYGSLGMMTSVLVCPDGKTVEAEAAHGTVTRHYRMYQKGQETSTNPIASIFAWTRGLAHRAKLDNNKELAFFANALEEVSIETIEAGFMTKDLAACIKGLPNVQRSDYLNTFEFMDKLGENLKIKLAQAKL
Hi, when you answer, please include the unit after the number. Thanks!

Here's what some known entries look like.
compound_structure_string: CCCc1c(C(=O)N2CCNCC2)cc(-c2nc(-c3ccc(Cl)cc3)cs2)c(=O)n1-c1c(CC)cccc1CC
inhibition: 97%

compound_structure_string: CC1(C)CC(=O)c2cc(-c3nc(-c4ccc(Cl)cc4)cs3)c(=O)n(-c3ccccc3F)c2C1
inhibition: 65%

compound_structure_string: COc1ccc(OC)c(-n2c3c(cc(-c4nc(-c5ccc(Cl)cc5)cs4)c2=O)C=CC(C)(C)C3)c1
inhibition: 96%

compound_structure_string: CCc1cccc(CC)c1-n1c(C)c(C(=O)NCCNC)cc(-c2nc(-c3ccc(Cl)cc3)cs2)c1=O
inhibition: 101%

compound_structure_string: CCc1cccc(CC)c1-n1c(C)c(C(=O)N(C)C)cc(-c2nc(-c3ccc(Cl)cc3)cs2)c1=O
inhibition: 98%

The measured inhibition associated with CC1(C)CC(=O)c2cc(-c3nc(-c4ccc(Cl)cc4)cs3)c(=O)n(-c3ccccc3OC(F)(F)F)c2C1 reads 98%

The measured inhibition associated with CCc1cccc(CC)c1-n1c(C)c(C(=O)N2CCNCC2)cc(-c2nc(-c3ccc(Cl)cc3)cs2)c1=O reads 103%

The measured inhibition associated with COc1ccc(OC)c(-n2c3c(cc(-c4nc(-c5ccc(Cl)cc5)cs4)c2=O)CCC(C)(C)C3)c1 reads 87%

###

target: Isocitrate dehydrogenase [NADP] cytoplasmic (Homo sapiens, UniProt O75874, R132H); experiment: Inhibition of IDH1 R132H mutant (unknown origin) assessed as reduction in NADPH consumption using alpha-KG as substrate incubated for 5 mins by diaphorase/resazurin-coupled system
Catalogue of IC50 readings, one per entry.
# value in µM; strip the unit string

compound: COc1ccc(OC)c(-n2c3c(cc(-c4nc(-c5ccc(Cl)cc5)cs4)c2=O)C=CC(C)(C)C3)c1
assay_target: Isocitrate dehydrogenase [NADP] cytoplasmic (Homo sapiens, UniProt O75874, R132H)
IC50 (µM): 3

compound: CCc1cccc(CC)c1-n1c(C=C(C)C)c(C(=O)N2CCNC(C(=O)O)C2)cc(-c2nc(-c3ccc(Cl)cc3)cs2)c1=O (stereo not drawn)
assay_target: Isocitrate dehydrogenase [NADP] cytoplasmic (Homo sapiens, UniProt O75874, R132H)
IC50 (µM): 0.055

compound: CCc1ccc(OC)cc1-n1c(C=C(C)C)c(C(=O)N2CCNCC2)cc(-c2nc(-c3ccc(Cl)cc3)cs2)c1=O
assay_target: Isocitrate dehydrogenase [NADP] cytoplasmic (Homo sapiens, UniProt O75874, R132H)
IC50 (µM): 0.114

compound: CCc1cccc(CC)c1-n1c(CC2CCOC2)c(C(=O)N2CCNCC2)cc(-c2nc(-c3ccc(Cl)cc3)cs2)c1=O (stereo not drawn)
assay_target: Isocitrate dehydrogenase [NADP] cytoplasmic (Homo sapiens, UniProt O75874, R132H)
IC50 (µM): 0.075

The measured IC50 associated with CCc1cccc(CC)c1-n1c(C=C(C)C)c(C(=O)N2C[C@H]3CC[C@@H](C2)N3)cc(-c2nc(-c3ccc(Cl)cc3)cs2)c1=O reads 0.094

The measured IC50 associated with COc1ccc(C(=O)O)cc1-n1c2c(cc(-c3nc(-c4ccc(Cl)cc4)cs3)c1=O)C(=O)CC(C)(C)C2 reads 12

The measured IC50 associated with CCc1cccc(CC)c1-n1c(C(C)C)c(C(=O)N2CCNCC2)cc(-c2nc(-c3ccc(Cl)cc3)cs2)c1=O reads 0.42

###

biological target: Isocitrate dehydrogenase [NADP] cytoplasmic (Homo sapiens, UniProt O75874, R132H); experiment: Inhibition of IDH1 R132H mutant (unknown origin) assessed as reduction in NADPH consumption using alpha-KG as substrate incubated for 5 mins by diaphorase/resazurin-coupled system
readout: IC50 (nM)
# value in nM; strip the unit string

compound: COc1ccc(OC)c(-n2c3c(cc(-c4nc(-c5ccc(Cl)cc5)cs4)c2=O)CCC(C)(C)C3)c1
readout: IC50
measured_result: 3600

compound: CCc1cccc(CC)c1-n1c(CC2CCOCC2)c(C(=O)N2CCNCC2)cc(-c2nc(-c3ccc(Cl)cc3)cs2)c1=O
readout: IC50
measured_result: 1100

The measured IC50 associated with CCc1cccc(CC)c1-n1c(C=C(C)C)c(C(=O)N2CCNC(C(N)=O)C2)cc(-c2nc(-c3ccc(Cl)cc3)cs2)c1=O (centres undefined) reads 94

###

tested on: Isocitrate dehydrogenase [NADP] cytoplasmic (Homo sapiens), O75874 [R132C]; assay: Inhibition of IDH1 R132C mutant (unknown origin) assessed as reduction in NADPH consumption using alpha-KG as substrate at 38 uM incubated for 5 mins by diaphorase/resazurin-coupled system relative to control
Sequence (O75874 whole entry R132C): as the sequence (O75874 whole entry R132H) above, with H132C counted along it
Grouping key: inhibition. Bins: class A (below 60%), class B (60% to below 80%), class C (80% or more)

Worked set:
molecule: CCc1cccc(C)c1-n1c2c(cc(-c3nc(-c4ccc(Cl)cc4)cs3)c1=O)C(=O)CC(C)(C)C2
discrete_label: class C
--
molecule: CCc1cccc(CC)c1-n1c(C)c(C(=O)NCCO)cc(-c2nc(-c3ccc(Cl)cc3)cs2)c1=O
discrete_label: class C
--
molecule: CCc1cccc(CC)c1-n1c(C)c(C(=O)NCCN)cc(-c2nc(-c3ccc(Cl)cc3)cs2)c1=O
discrete_label: class C
--
molecule: COc1ccc(OC)c(-n2c3c(cc(-c4c[nH]c(-c5ccccc5)n4)c2=O)C(=O)CC(C)(C)C3)c1
discrete_label: class A
--
molecule: CCc1cccc(CC)c1-n1c(C)c(C(=O)NCC(N)=O)cc(-c2nc(-c3ccc(Cl)cc3)cs2)c1=O
discrete_label: class B

Data request: The entry to classify is CCc1cccc(CC)c1-n1c(CC(C)C)c(C(=O)N2CCNCC2)cc(-c2nc(-c3ccc(Cl)cc3)cs2)c1=O ; which class holds it?
Data returned: class C

###

test system: Isocitrate dehydrogenase [NADP] cytoplasmic (Homo sapiens), O75874 [R132H]; test: Inhibition of IDH1 R132H mutant (unknown origin) expressed in human U87 cells assessed as R-2-hydroxyglutarate production at 100 nM after 48 hrs by LC-MS analysis; assay type: cell-based; design: scale not given: the % may be the effect or the level left
Catalogue of Activity readings, one per entry.
# value in %; strip the unit string

compound: CCc1cccc(CC)c1-n1c(C=C(C)C)c(C(=O)N2CCNC(C(=O)O)C2)cc(-c2nc(-c3ccc(Cl)cc3)cs2)c1=O (stereo unspecified)
measured_result: 29

The measured Activity associated with CCc1cccc(CC)c1-n1c(CC(C)C)c(C(=O)N2CCNCC2)cc(-c2nc(-c3ccc(Cl)cc3)cs2)c1=O reads 33

The measured Activity associated with CCc1cccc(CC)c1-n1c(C=C(C)C)c(C(=O)N2C[C@H]3CC[C@@H](C2)N3)cc(-c2nc(-c3ccc(Cl)cc3)cs2)c1=O reads 11

The measured Activity associated with CCc1ccc(Cl)cc1-n1c(C=C(C)C)c(C(=O)N2CCNCC2)cc(-c2nc(-c3ccc(Cl)cc3)cs2)c1=O reads 5.9

The measured Activity associated with CCc1cccc(CC)c1-n1c(C=C(C)C)c(C(=O)N2CCNCC2C)cc(-c2nc(-c3ccc(Cl)cc3)cs2)c1=O (stereo unspecified) reads 14

The measured Activity associated with CCc1cccc(CC)c1-n1c(C=C(C)C)c(C(=O)N2CCNC(=O)C2)cc(-c2nc(-c3ccc(Cl)cc3)cs2)c1=O reads 23

###

Catalogue of IC50 readings, one per entry.
target: Isocitrate dehydrogenase [NADP] cytoplasmic (Homo sapiens, UniProt O75874, R132H); assay: Inhibition of IDH1 R132H mutant (unknown origin) assessed as reduction in NADPH consumption using alpha-KG as substrate incubated for 5 mins by diaphorase/resazurin-coupled system
# value in nM; strip the unit string

Here's what some known entries look like.
molecule: CCc1cccc(CC)c1-n1c(C)c(C(=O)NCC(N)=O)cc(-c2nc(-c3ccc(Cl)cc3)cs2)c1=O
IC50 [nM]: 1600

molecule: CCc1cccc(CC)c1-n1c(CC2CCNC2)c(C(=O)N2CCNCC2)cc(-c2nc(-c3ccc(Cl)cc3)cs2)c1=O (centres undefined)
IC50 [nM]: 10000

molecule: CCc1cccc(CC)c1-n1c(CC2CC2)c(C(=O)N2CCNCC2)cc(-c2nc(-c3ccc(Cl)cc3)cs2)c1=O
IC50 [nM]: 55

Next molecule, IC50 to be filled in.
The measured IC50 associated with CCc1cccc(CC)c1-n1c(C=C(C)C)c(C(=O)N2CCNCC2)cc(-c2nc(-c3ccc(Cl)cc3)cs2)c1=O reads 44
